test-summary: Single dose plasma pharmacokinetics in CD1 mice
Type: in vivo, mouse
assay-conditions: CD1, mouse, plasma; IP 40 mg/kg
observed-property: bioavailability (%)
Numbers only, in %.

q: Item under review: Cl.Cl.N#Cc1ccc(/C=C2/C(=O)/C(=C/c3ccc(C#N)cc3)C23CCN(C(=N)N)CC3)cc1 . Reported bioavailability?
a: 103

###

test-summary: Single dose plasma pharmacokinetics in CD1 mice
Assay type: in vivo, mouse
assay-conditions: male, CD1, mouse, plasma, ip, 40 mg/kg, IP 40 mg/Kg, 15 min
observed-property: concentration at 15 min
Give the figure together with its unit, number first.

q: # get_value(readout='concentration at 15 min', item= Cl.Cl.N#Cc1ccc(/C=C2/C(=O)/C(=C/c3ccc(C#N)cc3)C23CCN(C(=N)N)CC3)cc1 )
a: 11500 ng/mL

Data origin: paper PMC11239005
